- System: Acinetobacter baumannii
- Experimental details: Antibacterial activity against Acinetobacter baumannii BAA1605
- Format: functional
// MIC lookup, one value per entry
I only need the number, in µg/mL, no unit after it.

| Mol | MIC (µg/mL) |
| --- | --- |
| O=C(NNc1ccc(Cl)cc1)c1cc2ccccc2[nH]1 | 0.25 |
| O=C(NNc1ccc(Cl)cc1)c1ccc(F)cc1F | 0.25 |
| O=C(NNc1cccc(Cl)c1)c1ccccn1 | 1 |

Recorded MIC for C=CC(=O)NNc1ccc(Cl)cc1 , please? 0.25

Similarly, O=C(NNc1ccc(Cl)cc1)c1ccc2ccccc2n1 ? 0.5

And what about the compound O=C(NNc1ccc(Cl)cc1)c1ccccc1 ? 0.5
